- SYSTEM: FLK-1 receptor (Mus musculus)
- Construct: expressed in transfected cells; host or cells: NIH3T3 C7#3
- Sequence (P35918 20-1345): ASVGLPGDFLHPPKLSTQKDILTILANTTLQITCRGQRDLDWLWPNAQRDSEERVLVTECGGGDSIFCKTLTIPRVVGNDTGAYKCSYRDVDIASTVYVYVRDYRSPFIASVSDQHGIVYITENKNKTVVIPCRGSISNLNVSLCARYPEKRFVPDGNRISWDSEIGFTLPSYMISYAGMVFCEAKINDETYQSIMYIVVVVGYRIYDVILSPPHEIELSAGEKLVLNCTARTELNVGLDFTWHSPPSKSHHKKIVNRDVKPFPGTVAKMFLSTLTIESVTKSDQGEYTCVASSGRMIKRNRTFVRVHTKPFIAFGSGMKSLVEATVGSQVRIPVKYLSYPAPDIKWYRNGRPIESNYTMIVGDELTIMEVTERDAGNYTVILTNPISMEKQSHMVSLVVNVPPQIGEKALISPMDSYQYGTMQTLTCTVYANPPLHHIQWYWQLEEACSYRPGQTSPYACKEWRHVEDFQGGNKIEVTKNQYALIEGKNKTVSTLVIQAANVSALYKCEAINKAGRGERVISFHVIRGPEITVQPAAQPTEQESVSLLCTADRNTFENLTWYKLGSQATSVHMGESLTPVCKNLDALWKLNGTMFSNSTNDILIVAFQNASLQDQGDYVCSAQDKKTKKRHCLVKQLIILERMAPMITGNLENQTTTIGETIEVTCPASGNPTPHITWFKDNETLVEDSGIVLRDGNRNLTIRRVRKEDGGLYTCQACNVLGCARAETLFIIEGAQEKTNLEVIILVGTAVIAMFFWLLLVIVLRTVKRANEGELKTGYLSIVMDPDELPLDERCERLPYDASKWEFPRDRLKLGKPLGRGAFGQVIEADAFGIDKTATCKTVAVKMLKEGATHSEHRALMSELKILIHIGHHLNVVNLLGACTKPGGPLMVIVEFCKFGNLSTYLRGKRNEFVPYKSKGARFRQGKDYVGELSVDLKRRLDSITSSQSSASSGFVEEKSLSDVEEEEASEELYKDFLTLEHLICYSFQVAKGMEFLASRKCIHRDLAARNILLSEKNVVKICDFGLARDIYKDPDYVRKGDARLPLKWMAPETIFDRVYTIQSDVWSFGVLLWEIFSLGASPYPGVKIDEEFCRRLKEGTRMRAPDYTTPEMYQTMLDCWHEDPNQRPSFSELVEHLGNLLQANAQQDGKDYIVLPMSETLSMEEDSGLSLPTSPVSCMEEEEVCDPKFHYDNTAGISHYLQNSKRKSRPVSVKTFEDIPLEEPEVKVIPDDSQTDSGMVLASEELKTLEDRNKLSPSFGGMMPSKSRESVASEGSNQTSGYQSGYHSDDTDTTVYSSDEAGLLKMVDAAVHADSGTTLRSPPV
- PROTOCOL: FLK-1 ELISA (kinase activity of the FLK-1 receptor in FLK-1/NIH3T3 cells, VEGF stimulated)
- Assay type: cell-based
The label depends only on Fik Kinase %Inhibition: yes (1) if it is at least 10%, no (0) if it is smaller.

INSERT INTO results (molecule, discrete_label) VALUES
  ('CC(=O)n1cc(C=C2C(=O)Nc3c(Br)cc(Br)cc32)c2ccccc21', 'no (0)'),
  ('C=C(C)C1CC=C(C=C2C(=O)Nc3ccc(CCCl)cc32)CC1 (centres unmarked)', 'yes (1)'),
  ('Cc1c(Br)ccc2c1C(=Cc1ccc3ccccc3c1O)C(=O)N2', 'yes (1)'),
  ('O=C1Nc2ccc(S(=O)(=O)Nc3ccc(C(F)(F)F)cc3)cc2C1=Cc1coc2ccc([N+](=O)[O-])cc2c1=O', 'yes (1)'),
  ('Cc1cn(C)cc1C=C1C(=O)Nc2c(Br)cc(Br)cc21', 'no (0)'),
  ('O=C1Nc2ccc(CCCl)cc2C1=Cc1cc(Cl)cc(Cl)c1O', 'yes (1)'),
  ('CC(C)(C)c1cc(C=C2C(=O)Nc3ccc(CCCl)cc32)ccc1OCc1ccccc1', 'yes (1)'),
  ('Cc1ccsc1C=C1C(=O)Nc2ccc(Br)c(C)c21', 'no (0)'),
  ('CCN(CC)c1ccc(C=C2C(=O)Nc3c(Br)cc(Br)cc32)c(O)c1', 'no (0)'),
  ('Cc1c(Br)ccc2c1C(=Cc1cc(C(C)(C)C)c(O)c(C(C)(C)C)c1)C(=O)N2', 'yes (1)'),
  ('CC(=O)n1cc(C=C2C(=O)Nc3ccc(S(=O)(=O)N4CCOCC4)cc32)c2ccccc21', 'yes (1)'),
  ('COc1cc(C=C2C(=O)Nc3c(Br)cc(Br)cc32)cc(OC)c1', 'no (0)'),
  ('O=C1Nc2ccc(CCCl)cc2C1=Cc1ccncc1', 'no (0)'),
  ('CCc1c(C)[nH]c(C=C2C(=O)Nc3ccc(S(=O)(=O)N4CCOCC4)cc32)c1C', 'yes (1)'),
  ('O=C1Nc2ccc(I)cc2C1=Cc1ccc(O)c([N+](=O)[O-])c1', 'no (0)'),
  ('CNS(=O)(=O)c1ccc2c(c1)C(=Cc1cc(C(C)C)c(O)c(C(C)C)c1)C(=O)N2', 'yes (1)'),
  ('O=C1Nc2c(Br)cc(Br)cc2C1=Cc1ccc(F)cc1C(F)(F)F', 'no (0)'),
  ('O=C1Nc2c(Br)cc(Br)cc2C1=Cc1ccc(Cl)s1', 'no (0)'),
  ('CN(C)c1ccc(C=C2C(=O)Nc3ccc(S(=O)(=O)N4CCOCC4)cc32)cc1', 'yes (1)'),
  ('O=C1Nc2c(Br)cc(Br)cc2C1=Cc1cccn1-c1ccc(Cl)cc1', 'no (0)'),
  ('Cc1cc(C=C2C(=O)Nc3c(Br)cc(Br)cc32)ccc1O', 'no (0)'),
  ('O=C1Nc2c(Br)cc(Br)cc2C1=Cc1c(F)cccc1C(F)(F)F', 'no (0)'),
  ('O=C1Nc2ccc(I)cc2C1=Cc1ccc[nH]1', 'no (0)'),
  ('O=C1Nc2c(Br)cc(Br)cc2C1=Cc1c(O)cc(O)cc1O', 'no (0)');
